Values from patent US20250376535A1

# Subject Of Test: T1, EGFR Fc (human, UniProt P00533 25-645)
# T1 construct: also called EGFR-hFc; recombinant human EGFR-Fc
# Test Description: ELISA, EGFR Fc coated
Provide the recorded EC50 for the entries that follow.
Give just the number in nM; leave the unit off.

Tell me its EC50 given pgEG-SX55 (VHH, not shown: small tags and cut ends) VHH: QVQLVESGGGLVQPGGSLRLSCAGTGLIFTTYVMGWYRQAPGKQRELVAIVTNGGGTHYADFVKGRFTISRDNAKNTVSLQMNLLKPEDTAVYYCNARHLVRPGTNDYWGQGTLVTVSS as the entry.
0.237

Return reported EC50. Input binder: pgEG-SX40 (VHH, not shown: small tags and cut ends) VHH: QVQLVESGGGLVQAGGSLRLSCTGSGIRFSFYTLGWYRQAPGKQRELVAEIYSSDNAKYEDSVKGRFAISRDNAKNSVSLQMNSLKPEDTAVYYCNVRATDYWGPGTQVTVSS
0.769

Indicate its recorded EC50; the binder in question is pgEG-SX3 (VHH, not shown: small tags and cut ends) VHH: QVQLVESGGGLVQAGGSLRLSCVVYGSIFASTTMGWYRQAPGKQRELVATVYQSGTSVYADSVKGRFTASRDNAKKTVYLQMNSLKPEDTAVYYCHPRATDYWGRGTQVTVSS
0.382

Give EC50 for pgEG-SX39 (VHH, not shown: small tags and cut ends) VHH: QVQVAESGGGLVQAGESLRLSCTASGSISTINAVRWYRQTPGKQREFVAYISTDGGTDYADPVKGRFTISRDNAKNTWFLQMNSLKPEDTGVYMCNVVVTPYAYWGQGTQVTVSS
2760
